Target: CB1 cannabinoid receptor (Rattus norvegicus)
Construct: membranes were prepared from rat forebrain membranes; from tissue; host or cells: rat forebrain membranes
Sequence (P20272 whole entry): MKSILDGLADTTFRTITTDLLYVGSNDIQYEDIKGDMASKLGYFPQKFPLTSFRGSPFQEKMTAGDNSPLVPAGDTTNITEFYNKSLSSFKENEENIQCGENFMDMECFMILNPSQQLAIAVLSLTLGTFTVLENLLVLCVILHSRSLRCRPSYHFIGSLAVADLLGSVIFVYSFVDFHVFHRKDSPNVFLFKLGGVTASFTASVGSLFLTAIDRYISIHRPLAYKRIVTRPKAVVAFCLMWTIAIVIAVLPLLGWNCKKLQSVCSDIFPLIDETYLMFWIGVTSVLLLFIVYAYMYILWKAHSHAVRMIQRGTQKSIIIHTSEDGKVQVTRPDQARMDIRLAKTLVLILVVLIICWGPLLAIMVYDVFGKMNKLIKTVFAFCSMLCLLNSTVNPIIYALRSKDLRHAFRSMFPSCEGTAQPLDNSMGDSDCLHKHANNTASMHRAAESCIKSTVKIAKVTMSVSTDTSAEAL
Assay: CB1 receptor binding assay ([3H]CP-55,940 displacement), with and without PMSF
Details: rat forebrain membranes, PMSF-treated; read-out: KI (CB1), with PMSF
QUANTITY NAME: Ki
# number then unit; no other words

Solved entries:
C=CCNC(=O)CCC/C=C\C/C=C\C/C=C\C/C=C\CCCCC [Analog 7, N-Allylarachidonylamide] :: 9.91 nM
CCCCC/C=C\C/C=C\C/C=C\C/C=C\CCCC(=O)N[C@H](C)CN=[N+]=[N-] (racemic) [Analog 4] :: 12.7 nM

Turning now to a further compound:
Bench note: what Ki did CCCCC/C=C\C/C=C\C/C=C\C/C=C\CCCCNC(=O)CCO [Analog 10, N-(3-Hydroxypropionyl)arachidonylamine] show?
115 nM
